tested on: MHH-CALL-3; test: selective drug sensitivity score (sDSS, relative to normal bone marrow) (sDSS (score)); higher = more potent and effective on the cell line relative to normal bone marrow cells; conditions: 72 h
We use 0 as the dividing line for selective drug sensitivity score: on or above the line is TRUE, below is FALSE.

In [3]: df
Out[3]:
                                   molecule  target_desc  label_class
0  CO[C@@H](C(=O)N1Cc2[nH]nc(NC(=O)c3ccc(N4CCN(C)CC4)cc3)c2C1)c1ccccc1 [Danusertib] (top concentration 10000 nM)   MHH-CALL-3         TRUE
1  Cc1cc(Nc2cc(CN3CCOCC3)c3nc(C)c(Cc4ccc(Cl)cc4F)n3n2)n[nH]1 [Gandotinib] (top concentration 10000 nM)   MHH-CALL-3         TRUE
2  C[C@H]1Oc2cc(cnc2N)-c2c(nn(C)c2C#N)CN(C)C(=O)c2ccc(F)cc21 (top concentration 1000 nM)   MHH-CALL-3        FALSE
3  COc1cccc2c1c(O)c(C(=O)N(C)c1ccc(C(F)(F)F)cc1)c(=O)n2C [Tasquinimod] (top concentration 10000 nM)   MHH-CALL-3        FALSE
4  COc1cc2nccc(Oc3ccc(NC(=O)Nc4cc(C)on4)c(Cl)c3)c2cc1OC [Tivozanib] (top concentration 10000 nM)   MHH-CALL-3        FALSE

---

Measured selective drug sensitivity score by item
test system: MHH-CALL-3; assay: selective drug sensitivity score (sDSS, relative to normal bone marrow) (sDSS (score)); higher = more potent and effective on the cell line relative to normal bone marrow cells; conditions: 72 h;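 further: ALL cell lines in 384-well plates, five doses spanning 10,000-fold, each plate scaled between vehicle and 100 µmol/L benzalkonium chloride controls, sDSS an adapted area-under-curve metric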
observable: selective drug sensitivity score

In [3]: df
Out[3]:
                                   compound                        observable  reported_result
0  CC[C@@](C)(Nc1ccnc(-c2c[nH]c3ncccc23)n1)C(=O)NCC(F)(F)F [Decernotinib] (top concentration 10000 nM)  selective drug sensitivity score            -1.94
1  COc1ccc2[nH]cc(/C=C3\C(=O)Nc4ccc(NC(=O)CCN5CCCCC5)cc43)c2c1 (top concentration 50000 nM)  selective drug sensitivity score            -5.32
2  CN(C)C(=N)NC(=N)N [Metformin] (top concentration 100000 nM)  selective drug sensitivity score            -0.02
3  O=c1sn(-c2cccc3ccccc23)c(=O)n1Cc1ccccc1 [Tideglusib] (top concentration 3000 nM)  selective drug sensitivity score             -0.3
4  NS(=O)(=O)NCCNc1nonc1/C(=N/O)Nc1ccc(F)c(Br)c1 [Epacadostat] (top concentration 10000 nM)  selective drug sensitivity score            -0.26
5  Clc1ccc(Nc2nnc(Cc3ccncc3)c3ccccc23)cc1 [Vatalanib] (top concentration 10000 nM)  selective drug sensitivity score                0
6  CCN(CC)CCOc1ccc(/C(=C(/Cl)c2ccccc2)c2ccccc2)cc1 [Clomifene] (top concentration 10000 nM)  selective drug sensitivity score             6.52
7  COc1cc(OC)c(/C=C/S(=O)(=O)Cc2ccc(OC)c(NCC(=O)O)c2)c(OC)c1 [Rigosertib] (top concentration 10000 nM)  selective drug sensitivity score             13.4
